- System: PC-3 PIP/flu tumor-bearing mice
- protocol.text: Biodistribution study in PC-3 PIP/flu tumor-bearing mice
- Assay type: in vivo, athymic nude Balb/c mice
- condition.context: 24 h p.i., PC-3 PIP/flu tumor-bearing mice
assay.endpoint: Heart
Answer with the figure and its unit, nothing else.

CC(C)Cc1ccc(C(C)C(=O)NCC[C@H](NC(=O)CN2CCN(CC(=O)O)CCN(CC(=O)O)CCN(CC(=O)O)CC2)C(=O)NCC2CCC(C(=O)N[C@@H](Cc3ccc4ccccc4c3)C(=O)NCCCC[C@H](NC(=O)N[C@@H](CCC(=O)O)C(=O)O)C(=O)O)CC2)cc1 (some centres unmarked) [^177Lu-Ibu-sPSMA, metal not drawn] | 0.39 ± 0.04 % IA/g

Quick note, Heart for CC(C)Cc1ccc(C(C)C(=O)NC(CC(=O)O)C(=O)NCCCCC(NC(=O)CN2CCN(CC(=O)O)CCN(CC(=O)O)CCN(CC(=O)O)CC2)C(=O)NCC2CCC(C(=O)NC(Cc3ccc4ccccc4c3)C(=O)NCCCCC(NC(=O)NC(CCC(=O)O)C(=O)O)C(=O)O)CC2)cc1 (centres unmarked) [^177Lu-Ibu-Dα-PSMA, metal not drawn] landed at 0.18 ± 0.03 % IA/g
